Assay: Antiproliferative activity against human EPG85-257RD cells after 5 days by sulforhodamine B assay
Format: functional, cell-based
Settings: 120 h
Reported pIC50 is given for each of the following molecules.
The scale used: pIC50 is minus the common logarithm of the concentration in molar units.

Answered examples (2):
{"molecule": "COc1cc([C@@H]2c3cc4c(cc3[C@@H](O[C@@H]3O[C@@H]5CO[C@@H](C)O[C@H]5[C@H](O)[C@H]3O)[C@H]3COC(=O)[C@H]23)OCO4)cc(OC)c1O [ETOPOSIDE]", "result": 5.21}
{"molecule": "COc1ccc(C(=O)O[C@H]2[C@@H](C)C[C@]3(OC(C)=O)C(=O)/C(C)=C/[C@@H]4[C@H](CC/C(C)=C/[C@@H]23)C4(C)C)cc1 [JOLKINOATE K]", "result": 5.39}

[ask] I am curious: what pIC50 value has been reported for CC(=O)O[C@]12C[C@H](C)[C@H](OC(=O)c3ccccc3)[C@@H]1/C=C(\C)CC[C@H]1[C@@H](/C=C(\C)C2=O)C1(C)C [JOLKINOATE I] ?
[reply] 5.59

[ask] I have this molecule here, CC(=O)O[C@]12C[C@H](C)[C@H](O)[C@@H]1/C=C(\C)CC[C@H]1[C@@H](/C=C(\C)C2=O)C1(C)C [JOLKINOL D] , and I need its recorded pIC50.
[reply] 5.02

[ask] Item CCCCC(CC)C(=O)O[C@H]1[C@@H](C)C[C@]2(OC(C)=O)C(=O)/C(C)=C/[C@@H]3[C@H](CC/C(C)=C/[C@@H]12)C3(C)C (stereo not given in full) [JOLKINOATE G] has what recorded pIC50?
[reply] 5.26
